# System: SK-MEL-2
# Experiment Description: NCI tumour cell line growth inhibition, 48 h
The source made the active and inactive calls. No stated cut-off is given here; in the data, active = GI50 up to about 1.1 µM and inactive = higher.
Labels: active, inactive

Compound: C=Cc1nc(C#N)c(N)o1
Class Name: inactive

Compound: O=C(/C=N/c1ccccc1C(=O)[O-])c1cccs1.O=C(/C=N/c1ccccc1C(=O)[O-])c1cccs1.[Zn+2]
Class Name: inactive

Compound: CNc1ncnc2c1nnn2C
Class Name: inactive

Compound: Cc1cc2[nH]c(Cl)c(/C=C3\C(=O)Nc4ccccc43)c2cc1O
Class Name: inactive

Compound: C=C(C)COC1CCCCO1 (centres undefined)
Class Name: inactive

Compound: O=C(N/N=C\c1ccc2ccccc2c1)Nc1ccc([N+](=O)[O-])cc1
Class Name: inactive

Compound: COC(=O)[C@H](Cc1ccccc1)NC(=O)/C(=C/C(C)C)NC(=O)[C@H](CCSC)NC=O
Class Name: inactive

Compound: Cc1nc2sc3cccc(Cl)c3n2c(=O)c1/N=N/c1ccc(Cl)cc1
Class Name: inactive

Compound: COc1c(-c2nc3ccc(N4CCN(C)CC4)nc3[nH]2)cc(OC)c2c1nc(CO)n2C
Class Name: inactive

Compound: CC1=C(C(=O)NCCc2ccccc2)CC(C(=O)NCCc2ccccc2)=C(C)N1
Class Name: inactive

Compound: COc1ccc(N2C(=O)C3c4[nH]c5ccccc5c4C4CCC(C(C)C)CC4C3C2=O)cc1 (centres undefined)
Class Name: inactive

Compound: Cc1ccc2ccc3ccc(C)nc3c2n1
Class Name: inactive

Compound: COc1ccc(/C=C/C(=N/NC(=O)N/N=C(/C=C/c2ccc(OC)cc2)C(C)C)C(C)C)cc1
Class Name: inactive

Compound: O=C1/C(=C\c2ccc([N+](=O)[O-])cc2)Sc2scc(-c3ccc(O)c(O)c3)[n+]21
Class Name: inactive

Compound: CO/C=C(/C(=O)OC)c1ccccc1Oc1c(F)c(F)c(F)c(F)c1F
Class Name: inactive

Compound: CC(CC(=O)O)(CC(=O)O)C(=O)O
Class Name: inactive

Compound: CC#N.O[C@@H]1CCCC[C@@H]1O.O[C@@H]1CCCC[C@@H]1O.[TeH2]
Class Name: inactive

Compound: C/C=C/COc1cc(NC(=S)c2ccoc2C)ccc1OC
Class Name: inactive

Compound: Cc1cc(-c2no[n+]([O-])c2-c2cc(C)sc2S(C)(=O)=O)c(S(C)(=O)=O)s1
Class Name: inactive

Compound: CC(=O)C(CN(C)C)C(c1ccccc1)c1c(O)c2ccccc2oc1=O (centres undefined)
Class Name: inactive

Compound: Cc1nnc(N)nc1C/C=C/C(Sc1ccc(Cl)cc1)c1ccccc1 (centres undefined)
Class Name: inactive

Compound: O=C1/C(=C/c2ccc(Br)s2)NC(=S)N1CN1CCCCC1
Class Name: active

Compound: CC1OC(=O)c2ccccc2NC1=O (centres undefined)
Class Name: inactive

Compound: Cc1ccc(S(=O)(=O)N/C(=C\C=C\c2ccccc2)C(=O)C(C)(C)C)cc1
Class Name: inactive

Compound: NS(=O)(=O)c1ccc(/C=C/c2cccc(O)c2)cc1
Class Name: inactive

Compound: O=C1c2cccnc2C(=O)c2c1nc1ccccc1c2-c1ccc2c3c(nc4ccccc42)C(=O)c2cccnc2-c13
Class Name: inactive

Compound: CCOC(=O)Cc1nnc2n(-c3ccccc3)c(=O)c3ccccc3n12
Class Name: inactive

Compound: NC(=O)NCCCC(NC(=O)OCCCCCCn1ccc(=O)[nH]c1=O)C(=O)O (centres undefined)
Class Name: inactive

Compound: N#Cc1nn(C2OC(COC(=O)c3ccccc3)C(OC(=O)c3ccccc3)C2OC(=O)c2ccccc2)c2nc[nH]c(=O)c12 (centres undefined)
Class Name: inactive

Compound: COc1cccc(C2c3cc4c(cc3OC(C)(O)C2C)OCO4)c1O (centres undefined)
Class Name: inactive

Compound: CS/C(=C(\S)c1ccccc1)c1ccccc1
Class Name: inactive

Compound: C[C@]12CCC(=O)CC1CCCC2=O (some centres undefined)
Class Name: inactive

Compound: COc1ccc(-c2cc(=O)c3c(O)c(OC)c(OC)c(OC)c3o2)cc1OC
Class Name: inactive

Compound: COc1cc(OC)cc(Oc2nc3c(N)cc(C(F)(F)F)cc3nc2-c2ccccc2)c1
Class Name: inactive
